Entry source: ChEMBL document CHEMBL1134097

Molecular target: Prostaglandin G/H synthase 1 (Homo sapiens, UniProt P23219)
Sequence (P23219 whole entry): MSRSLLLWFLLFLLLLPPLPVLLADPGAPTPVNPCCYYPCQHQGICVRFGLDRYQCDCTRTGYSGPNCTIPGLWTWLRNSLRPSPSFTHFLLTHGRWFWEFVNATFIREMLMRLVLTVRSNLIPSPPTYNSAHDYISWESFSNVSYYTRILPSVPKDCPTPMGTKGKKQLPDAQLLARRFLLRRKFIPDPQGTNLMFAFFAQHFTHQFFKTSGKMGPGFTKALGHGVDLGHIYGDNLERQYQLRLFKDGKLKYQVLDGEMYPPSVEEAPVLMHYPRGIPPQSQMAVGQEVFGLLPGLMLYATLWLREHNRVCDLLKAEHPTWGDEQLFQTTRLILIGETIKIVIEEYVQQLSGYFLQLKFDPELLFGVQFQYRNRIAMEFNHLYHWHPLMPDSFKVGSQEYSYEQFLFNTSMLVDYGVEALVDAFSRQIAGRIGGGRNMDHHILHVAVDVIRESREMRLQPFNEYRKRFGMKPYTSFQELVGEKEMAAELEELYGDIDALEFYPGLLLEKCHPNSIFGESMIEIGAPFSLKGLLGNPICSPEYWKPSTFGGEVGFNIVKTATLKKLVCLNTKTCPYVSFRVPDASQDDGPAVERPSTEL
Assay: Inhibitory concentration against Prostaglandin G/H synthase 1
READOUT_LABEL: IC50 (µM)
Numbers only; they are read as µM.

Prompt: Lab request: please report IC50 under test system Prostaglandin G/H synthase 1 (Homo sapiens, UniProt P23219) for C=C[C@@H]1[C@@H](O)C[C@@H]2[C@]3(CC[C@]4(C)[C@@H]([C@H](C)CCC=C(C)C)CC[C@@]24C)C[C@]13CCC(=O)O
Completion: 43.7

###

Assay: Activity determined by 1,1-diphenyl-2-picrylhydrazyl (DPPH) free radical antioxidant assay
Type: functional
READOUT_LABEL: pIC50
Interpret pIC50 as the negative base-10 log of the concentration measured in mol/L.

Prompt: If you can, please state the reported pIC50 value of COC(=O)C[C@H](c1ccc(O)c(O)c1)c1c(O)cc(O)c2c1O[C@H](c1ccc(O)c(O)c1)[C@H](O)C2 .
Completion: 4.54
